Each entry below carries its reported koff.
Target: T1, recombinant human CD39 (in-house product, 38 to 478 aa of Accession No. NM_001776.6) (human, UniProt P49961 38-478)
T1 construct: also called rhCD39; human CD39-ECD; not shown: Myc and His tags at the C-terminus are named only for the PE-lab
T1 sequence (looked up): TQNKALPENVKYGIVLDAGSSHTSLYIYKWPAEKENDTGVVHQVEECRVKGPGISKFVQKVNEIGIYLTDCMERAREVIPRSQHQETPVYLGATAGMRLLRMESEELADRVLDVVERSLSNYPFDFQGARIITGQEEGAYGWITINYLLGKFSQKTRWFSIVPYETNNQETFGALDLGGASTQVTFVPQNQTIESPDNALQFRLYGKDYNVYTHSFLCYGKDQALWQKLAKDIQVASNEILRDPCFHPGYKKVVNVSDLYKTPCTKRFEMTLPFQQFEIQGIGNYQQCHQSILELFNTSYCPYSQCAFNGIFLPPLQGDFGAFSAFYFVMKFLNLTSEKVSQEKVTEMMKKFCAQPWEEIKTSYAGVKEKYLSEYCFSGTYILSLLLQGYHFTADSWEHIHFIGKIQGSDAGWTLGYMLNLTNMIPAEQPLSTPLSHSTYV
Experiment: SPR Biacore8K, antibody captured on anti-human IgG, antigen as analyte
# answer = value followed by unit

Exam item: Quick one: koff of T86_sc (antibody, scFv-Fc homodimer, anti-CD39 (mouse variable regions); also called scFv-Fc homodimeric antibody of anti-CD39_scFv antibody T86; not shown: linker and Fc-LALA (human IgG1 Fc with L234A and L235A)) scFv: QIQLVQSGPELKKPGETVKISCEASGYTFINYGMNWVKQAPGKGLKWMGWINTYTGEPTYADDFKGRFAFSLETSANTAYLQINNLKNEDTATYFCARKGYYGYPNYYAMDYWGQGTSVTVSSGGGGSGGGGSGGGGSGGGGSDIVMTQSQKFMSTSVGDRVSITCKASQNVGTAVAWYQQKPGQSPKLLIYSASNRYTGVPDRFTGSGSGTDFTLTISNMQSEDLADYFCQQYSSYPITFGTGTKLEIK ?
Marked response: 0.000823 s⁻¹

Exam item: Tell me the measured koff of I67_sc (antibody, scFv-Fc homodimer, anti-CD39 (mouse variable regions); also called scFv-Fc homodimeric antibody of anti-CD39_scFv antibody I67; not shown: linker and Fc-LALA (human IgG1 Fc with L234A and L235A)) scFv: DVQLQESGPSLVQPSQSLSINCTVSGFSLSSYGVHWVRQSPGKGLEWLGVIWRRGSTDYNAAFMSRLSITKDNSKSQVFFKMNRLQADDTATYYCAKGISTATSWFAYWGQGTLVTVSAGGGGSGGGGSGGGGSGGGGSDIVMTQSHKFMSTSVGDRVSVTCKASQNVGTNVAWYQQKPGQSPKALIYSASYRYSGVPDRFTGSGSGTDFTLTISNVQSEDLAEYFCQQYNSYPLTFGAGTKLELK , please.
Marked response: 0.00294 s⁻¹

Exam item: I have this binder here, 6-3hIG_LA (antibody, V domains shown, IgG1LALA homodimeric antibody; also called IgG1LALA homodimeric antibody of anti-CD39 antibody (humanized) 6-3hIG) VH: QVQLVQSGAELVKPGASVKLSCKASGFSIKDTYVHWVKQAPGKGLEWIGKIDPANVNTKFDPKFQGRVTITADTSTNTAYLQLSSLRSEDTAVYYCALYGYDDDAYYFDYWGQGTLVTVSS VL: EIVLTQSPASLSVSPGERATISCRASESVDNYGISFMNWFQQKPGQAPKLLIYAASNQGSGVPARFSGSGSGTDFTLTISSLEPEDFAVYYCQQSKEVPYTFGQGTKLEIK , and I need its recorded koff.
Marked response: 0.000193 s⁻¹

From here, focus on the item given below.
Exam item: Consider the binder mAnE67_sc (antibody, scFv-Fc homodimer, anti-CD39 (mouse variable regions); also called scFv-Fc homodimeric antibody of anti-CD39_scFv antibody mAnE67; not shown: linker and Fc-LALA (human IgG1 Fc with L234A and L235A)) scFv: EVQLVESGGGLVKPGGSRKLSCAASGFTFSDYGMHWVRQAPEKGLEWVAYISSGSSIIYYADTVKGRFTISRDNAKNTLFLQMTGLRSEDTAMYYCARKDYPYAMDYWGQGTSLAVSSGGGGSGGGGSGGGGSGGGGSSIVMTQTPKFMSTSVGDRVSVTCKASQNVGTNVAWYQQKPGQSPKALIYWASNRFTGVPDRFTGSGSGTDFTLTISNVQSEDLADYFCQQYSSSPYTFGSGTKLEIK and give its measured koff.
Marked response: 0.00187 s⁻¹
